I'd be grateful if you could share measured half-life for these entries.
assayName: Half life in 0.1 N aqueous HCl buffer at pH 1
Assay type: physicochemical
conditionsUsed: 0.1 N aqueous HCl buffer

Hello, please tell me recorded half-life for this one: COC(=O)N[C@H](C(=O)N[C@@H](Cc1ccccc1)[C@H](CN(Cc1ccc(-c2ccccn2)cc1)NC(=O)[C@@H](NC(=O)OC)C(C)(C)C)OC(=O)OC(C)OC(=O)[C@H](C(C)C)N(C)C)C(C)(C)C (stereo in doubt; 21)
> 20.8 days

Hello, please tell me recorded half-life for this one: COC(=O)N[C@H](C(=O)N[C@@H](Cc1ccccc1)[C@H](CN(Cc1ccc(-c2ccccn2)cc1)NC(=O)[C@@H](NC(=O)OC)C(C)(C)C)OC(=O)OCOC(=O)[C@@H](C(C)C)N(C)C)C(C)(C)C
> 20.8 days
